src = patent US7205275

# IC50 listing for each entry below
- STUDY_SYSTEM: T1, human Ang-2 (human, UniProt O15123)
- T1 chain: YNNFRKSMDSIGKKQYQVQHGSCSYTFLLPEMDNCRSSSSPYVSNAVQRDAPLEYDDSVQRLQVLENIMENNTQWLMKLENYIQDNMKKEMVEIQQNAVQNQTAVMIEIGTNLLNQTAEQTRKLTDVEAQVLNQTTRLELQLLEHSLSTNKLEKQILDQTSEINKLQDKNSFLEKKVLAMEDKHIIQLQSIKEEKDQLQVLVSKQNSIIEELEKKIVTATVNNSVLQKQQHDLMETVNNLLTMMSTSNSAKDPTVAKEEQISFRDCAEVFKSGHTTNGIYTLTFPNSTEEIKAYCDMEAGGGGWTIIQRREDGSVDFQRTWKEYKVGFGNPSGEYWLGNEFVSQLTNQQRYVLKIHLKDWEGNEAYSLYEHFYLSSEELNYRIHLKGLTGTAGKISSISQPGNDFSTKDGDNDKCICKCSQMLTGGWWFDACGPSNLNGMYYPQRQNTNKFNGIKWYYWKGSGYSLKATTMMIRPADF
- PROTOCOL_DETAILS: competition ELISA vs Tie-2
Primed or numbered codes have the meaning given here. Where no end group is shown, it is not given here. [ ]: non-standard residue; d: D form. Fc(4) = non-antigen-binding fragment of an antibody (from proteolytic digestion of a whole antibody); Fc(7) = Fc domain, peptide fused N- or C-terminal to it
Output spec: scalar in nM, unitless text.

Solved cases below.
| BINDER | IC50 / nM |
| --- | --- |
| M[Fc(7)]GGGGGAQGPRISTCQWDPWTCEHMDQLLE (not fully specified (bridges); cysteine pairing not given here) [Con4-17 (C)] | 0.96 |
| M[Fc(4)]GGGGGAQGTSPSFCQWDPWTCSHMVQGLE (not fully specified; cysteine pairing not given here) [Con4-9 (C)] | 20.1 |
| M[Fc(4)]GGGGGAQAATQEECEWDPWTCEHMPRSLE (not fully specified (bridges); cysteine pairing not given here) [Con4-C5 (C)] | 0.16 |

Inquiry: For the binder M[Fc(7)]GGGGGAQTKGKSVCQWDPWTCSHMQSGLE (not fully specified (bridges); cysteine pairing not given here) [Con4-21 (C)] , what IC50 is on record?
Reply text: 3.21

Inquiry: Which measured IC50 value corresponds to M[Fc(7)]GGGGGAQRTTQEKCEWDPWTCEHMESQLE (not fully specified (bridges); cysteine pairing not given here) [Con4-29 (C)] ?
Reply text: 0.41
